- System: Calmodulin-domain protein kinase 1 (Toxoplasma gondii, UniProt Q9BJF5)
- Sequence (Q9BJF5 whole entry): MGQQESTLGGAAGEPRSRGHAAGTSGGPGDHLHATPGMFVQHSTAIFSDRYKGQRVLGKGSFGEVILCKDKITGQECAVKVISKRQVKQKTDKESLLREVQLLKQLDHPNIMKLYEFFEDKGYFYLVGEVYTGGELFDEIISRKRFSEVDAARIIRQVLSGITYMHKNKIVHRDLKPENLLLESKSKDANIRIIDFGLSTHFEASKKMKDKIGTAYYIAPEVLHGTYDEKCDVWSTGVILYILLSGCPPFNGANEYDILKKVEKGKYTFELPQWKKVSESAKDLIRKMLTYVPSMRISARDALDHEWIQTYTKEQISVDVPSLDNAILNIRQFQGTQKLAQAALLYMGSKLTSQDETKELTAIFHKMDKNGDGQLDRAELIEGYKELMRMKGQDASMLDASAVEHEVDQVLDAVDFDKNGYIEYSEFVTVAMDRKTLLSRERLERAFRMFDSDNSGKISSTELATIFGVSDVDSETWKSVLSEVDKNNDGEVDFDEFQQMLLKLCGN
- Method summary: Luminescent Kinase Assay: Inhibition of TgCDPK1 and CpCDPK1 was determined using a luminescent kinase assay which measures ATP depletion in the presence of the Syntide 2 peptide substrate (KinaseGlo). For description of the methods and assays, see WO 2011/094628, incorporated by reference herein.
Measurement kind: IC50
Answer shape: numeric part, then the unit.

Per the record, "CC(C)(C)n1cc(C(N)=O)c(-c2ccc3c(N)n[nH]c3c2)n1" has IC50 of 40 nM
